Values from patent US20260250290A1

- systemUnderTest: full length SGK1 (Homo sapiens)
- Construct: 125 μM full length SGK1 (Life Technologies Part #PR7358A); purchased Life Technologies PR7358A
- Sequence (O00141 1-431): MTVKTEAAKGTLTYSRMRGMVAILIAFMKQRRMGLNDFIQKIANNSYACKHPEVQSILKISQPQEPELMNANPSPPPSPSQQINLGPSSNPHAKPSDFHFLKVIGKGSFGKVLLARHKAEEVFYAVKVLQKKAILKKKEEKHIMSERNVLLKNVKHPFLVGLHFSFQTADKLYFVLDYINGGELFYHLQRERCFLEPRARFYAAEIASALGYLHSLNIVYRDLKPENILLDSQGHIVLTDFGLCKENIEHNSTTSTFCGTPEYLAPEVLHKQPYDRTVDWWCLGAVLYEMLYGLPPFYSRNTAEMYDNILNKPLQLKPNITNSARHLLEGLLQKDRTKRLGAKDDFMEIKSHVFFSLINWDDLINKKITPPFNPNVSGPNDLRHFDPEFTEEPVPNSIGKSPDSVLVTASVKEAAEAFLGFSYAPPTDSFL
- assayText: SGK1 inhibition Assay A (Caliper LabChip electrophoretic separation of fluorescent peptide substrate and phosphorylated product)
- Format: biochemical
- details: Assay A; 20 μM ATP, 40 min incubation; read-out: SGK1 IC50
pIC50: −log10 of the molar value. Where a name gives a salt, the structure may show the parent alone.
property: pIC50

>>> df
                                   molecule  reportedmeasurement
0  COc1ccc(OC)c(C(=O)N[C@@H]2CCCN(c3cc(-c4ccc(S(C)(=O)=O)cc4)n4ncnc(N)c34)C2)c1 [Example 56, TFA]                 6.31
1  CN(C)CCOc1cc(Cl)sc1C(=O)N[C@@H]1CCCN(c2cc(C3=CCN(C(=O)C4CC(F)(F)C4)C3)n3ncnc(N)c23)C1 [Example 179, TFA]                 8.10
2  CC(=O)N1CC=C(c2cc(N3CCC[C@@H](NC(=O)c4cccc(N5CCNC(C(F)(F)F)C5)n4)C3)c3c(N)ncnn23)C1 (stereo partly drawn) [Example 776]                 8.30
3  CS(=O)(=O)c1ccc(-c2cc(N3CCC[C@@H](NC(=O)c4cnn(C5CCOCC5)c4)C3)c3c(N)ncnn23)cc1 [Example 78]                 7.17
4  CS(=O)(=O)c1ccc(-c2cc(N3CCC[C@@H](NC(=O)C4CCOCC4)C3)c3c(N)ncnn23)cc1 [Example 17, TFA]                 5.89
5  COC(=O)N1CC=C(c2cc(N3CCC[C@@H](NC(=O)c4sc(Cl)cc4OC4CCNC(C)C4)C3)c3c(N)ncnn23)C1 (stereo partly drawn) [Example 624]                 8.15
